Each recorded value in this set is attributed to PubChem BioAssay AID1159580.

# assay: chemical genetic growth profiling, strain panel (AID 1159580);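 further: tested at 20 µM; growth read once vehicle control cultures reached saturation at 30 °C; lower values mean less growth of the strain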
# setup.conditions: S. cerevisiae deletion strains, growth OD, locus YFL009W, strain cdc4
The campaign covered roughly 5,500 compounds. About 2,000 (36%) were called active. Not shown: some 18% with an inconclusive outcome. No stated cut-off is given here; in the data, active means normalized growth mostly below about 0.91 (no sharp cut-off); inconclusive means no clear call, values can overlap the other calls; inactive means mostly above about 0.92. This is one part of the list.
Would you mind answering with one of these outcomes? active, inactive

O=C1c2ccccc2O[C@@H](c2ccccc2)[C@@H]1NCc1ccccc1 : inactive
N=c1ccc2nc3c(Cl)c4c(c(Cl)c3oc-2c1S(=O)(=O)O)Nc1ccc(N)c(S(=O)(=O)O)c1O4 : inactive
Clc1ccc(-c2csc(Nc3ccccc3)n2)s1 : inactive
Cc1nc(-c2ccc(C(F)(F)F)cn2)[nH]c(=O)c1Cl : inactive
Cc1ccc2c(c1)CCCN2CC(=O)N(c1ccccc1)C1CCCCC1 : inactive
CCC(C)Cn1c(Sc2ncc([N+](=O)[O-])s2)n[nH]c1=O (stereo unspecified) : active
CC(C)c1ccc(-c2cc(=O)c3ccccc3o2)cc1 : inactive
CN(C(=O)N(C)c1ccc(Cl)cc1C(=O)c1ccccc1Cl)c1ccc(Cl)cc1C(=O)c1ccccc1Cl : active

Prompt: Record lookup: outcome of this test for CC(O)(CNCc1ccc(Cl)cc1)CSc1ccccc1Cl (stereo unspecified) ?
Response: inactive

Prompt: Record lookup: outcome of this test for CCn1nc(C)cc1-c1nnc(Sc2ncc([N+](=O)[O-])s2)n1C ?
Response: inactive

Prompt: Record lookup: outcome of this test for N#CCC(=O)c1cccc(CSc2ccccc2Cl)c1 ?
Response: inactive
